- Test system: Echinochloa crus-galli
- Assay Text: Herbicidal action post-emergence, greenhouse pot test
- Format: in vivo
- Protocol Conditions: application rate 80 g/ha
Reported Property: Echinochloa crus-galli (Efficacy in %)

In [3]: df
Out[3]:
                                   molecule                       reported_property  unit_string  value
0  CCOC(=O)CCOC(=O)C(C)Sc1cc(-n2c(=O)cc(C(F)(F)F)n(C)c2=O)c(F)cc1Cl (centres unmarked)  Echinochloa crus-galli (Efficacy in %)            %    100
1  COC(=O)CCOC(=O)C(C)Sc1cc(-n2c(=O)cc(C(F)(F)F)n(C)c2=O)c(F)cc1Cl (centres unmarked)  Echinochloa crus-galli (Efficacy in %)            %    100
2  CC(Sc1cc(-n2c(=O)cc(C(F)(F)F)n(C)c2=O)c(F)cc1Cl)C(=O)OC1CCNC1=O (centres unmarked)  Echinochloa crus-galli (Efficacy in %)            %    100
3  COC(=O)CC(CC(=O)OC)OC(=O)C(C)Sc1cc(-n2c(=O)cc(C(F)(F)F)n(C)c2=O)c(F)cc1Cl (centres unmarked)  Echinochloa crus-galli (Efficacy in %)            %    100
4  CC(Sc1cc(-n2c(=O)cc(C(F)(F)F)n(C)c2=O)c(F)cc1Cl)C(=O)OCCC(N)=O (centres unmarked)  Echinochloa crus-galli (Efficacy in %)            %    100
5  CCCOC(=O)CCOC(=O)C(C)Sc1cc(-n2c(=O)cc(C(F)(F)F)n(C)c2=O)c(F)cc1Cl (centres unmarked)  Echinochloa crus-galli (Efficacy in %)            %    100
6  CC(Sc1cc(-n2c(=O)cc(C(F)(F)F)n(C)c2=O)c(F)cc1Cl)C(=O)OCCC(=O)O (centres unmarked)  Echinochloa crus-galli (Efficacy in %)            %    100
7  CON(C)C(=O)COC(=O)C(C)Sc1cc(-n2c(=O)cc(C(F)(F)F)n(C)c2=O)c(F)cc1Cl (centres unmarked)  Echinochloa crus-galli (Efficacy in %)            %    100

====

- System: Zea mays
- Assay Text: Crop compatibility post-emergence, greenhouse pot test
- Assay type: in vivo
- Protocol Conditions: application rate 5 g/ha
- Source text: Seeds of mono- and dicotyledonous weed plants and crop plants were laid out in sandy loam soil in plastic or wood-fiber pots, covered with soil and grown under controlled growth conditions in a greenhouse. […] After the trial plants had stood for about 3 weeks in the greenhouse, under optimal growth conditions, the effect of the preparations was scored visually by comparison with untreated controls. […] Crop plant compatibilities were also scored correspondingly. […]
Reported Property: Zea mays (Efficacy in %)

>>> df
                                   compound         reported_property  value
0  CCC(Sc1cc(-n2c(=O)cc(C(F)(F)F)n(C)c2=O)c(F)cc1Cl)C(=O)OCC(C)(C)C(=O)OC (stereo not drawn) [I.2-32]  Zea mays (Efficacy in %)     20
1  CC(Sc1cc(-n2c(=O)cc(C(F)(F)F)n(C)c2=O)c(F)cc1Cl)C(=O)OC1CCOC1=O (stereo not drawn) [I.1-141]  Zea mays (Efficacy in %)     10
2  COC(=O)CC(CC(=O)OC)OC(=O)C(C)Sc1cc(-n2c(=O)cc(C(F)(F)F)n(C)c2=O)c(F)cc1Cl (stereo not drawn) [I.1-127]  Zea mays (Efficacy in %)     20
3  CC(Sc1cc(-n2c(=O)cc(C(F)(F)F)n(C)c2=O)c(F)cc1Cl)C(=O)OC1COC(=O)C1 (stereo not drawn) [I.1-144]  Zea mays (Efficacy in %)     10
4  COC(=O)C1(OC(=O)C(C)Sc2cc(-n3c(=O)cc(C(F)(F)F)n(C)c3=O)c(F)cc2Cl)CC1 (stereo not drawn) [I.1-102]  Zea mays (Efficacy in %)      0
5  CC(Sc1cc(-n2c(=O)cc(C(F)(F)F)n(C)c2=O)c(F)cc1Cl)C(=O)OCCC(=O)N(C)C (stereo not drawn) [I.1-231]  Zea mays (Efficacy in %)     20
6  CC(Sc1cc(-n2c(=O)cc(C(F)(F)F)n(C)c2=O)c(F)cc1Cl)C(=O)OCCC(=O)O (stereo not drawn) [I.1-1]  Zea mays (Efficacy in %)     10
7  CCC(Sc1cc(-n2c(=O)cc(C(F)(F)F)n(C)c2=O)c(F)cc1Cl)C(=O)OCCC(=O)OCc1ccccc1 (stereo not drawn) [I.2-6]  Zea mays (Efficacy in %)      0
8  CC(Sc1cc(-n2c(=O)cc(C(F)(F)F)n(C)c2=O)c(F)cc1Cl)C(=O)OCCC(N)=O (stereo not drawn) [I.1-151]  Zea mays (Efficacy in %)     20

====

# Lookup of reported Setaria viridis (Efficacy in %) keyed by entry
- System: Setaria viridis
- Assay Text: Herbicidal action post-emergence, greenhouse pot test
- Type: in vivo
- Protocol Conditions: application rate 20 g/ha
Reported Property: Setaria viridis (Efficacy in %)

>>> df
                                    compound  value
 0  COC(=O)COC(=O)C(C)Sc1cc(-n2c(=O)cc(C(F)(F)F)n(C)c2=O)c(F)cc1Cl (stereo not drawn) [I.1-42]   100%
 1  CCOC(=O)COC(=O)CSc1cc(-n2c(=O)cc(C(F)(F)F)n(C)c2=O)c(F)cc1Cl [I.8-43]   100%
 2  Cn1c(C(F)(F)F)cc(=O)n(-c2cc(SCC(=O)OCC(=O)OCc3ccccc3)c(Cl)cc2F)c1=O [I.8-46]   100%
 3  COC(=O)C1(OC(=O)C(C)Sc2cc(-n3c(=O)cc(C(F)(F)F)n(C)c3=O)c(F)cc2Cl)CC1 (stereo not drawn) [I.1-102]   100%
 4  CCC(Sc1cc(-n2c(=O)cc(C(F)(F)F)n(C)c2=O)c(F)cc1Cl)C(=O)OCC(C)(C)C(=O)OC (stereo not drawn) [I.2-32]   100%
 5  CCOC(=O)COC(=O)C(C)Sc1cc(-n2c(=O)cc(C(F)(F)F)n(C)c2=O)c(F)cc1Cl (stereo not drawn) [I.1-43]   100%
 6  CC(Sc1cc(-n2c(=O)cc(C(F)(F)F)n(C)c2=O)c(F)cc1Cl)C(=O)OC1COC(=O)C1 (stereo not drawn) [I.1-144]   100%
 7  CCOC(=O)CCOC(=O)C(CC(C)C)Sc1cc(-n2c(=O)c(C)c(C(F)(F)F)n(C)c2=O)c(F)cc1Cl (stereo not drawn) [I.14-3]    90%
 8  CCOC(=O)COC(=O)C(CC)Sc1cc(-n2c(=O)cc(C(F)(F)F)n(C)c2=O)c(F)cc1Cl (stereo not drawn) [I.2-43]   100%
 9  CC(C)NC(=O)COC(=O)C(C)Sc1cc(-n2c(=O)cc(C(F)(F)F)n(C)c2=O)c(F)cc1Cl (stereo not drawn) [I.1-184]   100%
10  CCOC(=O)CCOC(=O)C(Sc1cc(-n2c(=O)cc(C(F)(F)F)n(C)c2=O)c(F)cc1Cl)C(C)C (stereo not drawn) [I.6-3]   100%
11  CC(Sc1cc(-n2c(=O)cc(C(F)(F)F)n(C)c2=O)c(F)cc1Cl)C(=O)OCC(=O)OCc1ccccc1 (stereo not drawn) [I.1-46]   100%
12  CCOC(=O)CCOC(=O)C(CC(C)C)Sc1cc(-n2c(=O)cc(C(F)(F)F)n(C)c2=O)c(F)cc1Cl (stereo not drawn) [I.4-3]    90%
13  CCC(Sc1cc(-n2c(=O)cc(C(F)(F)F)n(C)c2=O)c(F)cc1Cl)C(=O)OCC1CCC(=O)O1 (stereo not drawn) [I.2-145]   100%
14  CCCOC(=O)CCOC(=O)C(CC)Sc1cc(-n2c(=O)cc(C(F)(F)F)n(C)c2=O)c(F)cc1Cl (stereo not drawn) [I.2-8]   100%
15  COC(=O)CC(CC(=O)OC)OC(=O)CSc1cc(-n2c(=O)cc(C(F)(F)F)n(C)c2=O)c(F)cc1Cl [I.8-127]   100%
16  CC(C)OC(=O)COC(=O)CSc1cc(-n2c(=O)cc(C(F)(F)F)n(C)c2=O)c(F)cc1Cl [I.8-44]   100%
17  CCC(Sc1cc(-n2c(=O)cc(C(F)(F)F)n(C)c2=O)c(F)cc1Cl)C(=O)OCCC(=O)OCc1ccccc1 (stereo not drawn) [I.2-6]   100%
18  CCCCOC(=O)COC(=O)C(C)Sc1cc(-n2c(=O)cc(C(F)(F)F)n(C)c2=O)c(F)cc1Cl (stereo not drawn) [I.1-51]   100%
19  CC(Sc1cc(-n2c(=O)cc(C(F)(F)F)n(C)c2=O)c(F)cc1Cl)C(=O)OCCC(=O)N(C)C (stereo not drawn) [I.1-231]   100%
20  CCCCOC(=O)COC(=O)CSc1cc(-n2c(=O)cc(C(F)(F)F)n(C)c2=O)c(F)cc1Cl [I.8-51]   100%
21  CCN(C)C(=O)CCOC(=O)C(C)Sc1cc(-n2c(=O)cc(C(F)(F)F)n(C)c2=O)c(F)cc1Cl (stereo not drawn) [I.1-233]   100%
22  CC(Sc1cc(-n2c(=O)cc(C(F)(F)F)n(C)c2=O)c(F)cc1Cl)C(=O)OC1CCNC1=O (stereo not drawn) [I.1-251]   100%
23  CCCCC(Sc1cc(-n2c(=O)cc(C(F)(F)F)n(C)c2=O)c(F)cc1Cl)C(=O)OCCC(=O)OCC (stereo not drawn) [I.47-3]   100%
24  CCCCC(Sc1cc(-n2c(=O)cc(C(F)(F)F)n(C)c2=O)c(F)cc1Cl)C(=O)OCCC(=O)OCc1ccccc1 (stereo not drawn) [I.47-6]   100%
25  CCOC(=O)CCOC(=O)C(CC)Sc1cc(-n2c(=O)cc(C(F)(F)F)n(C)c2=O)c(F)cc1Cl (stereo not drawn) [I.1-2-3]   100%
26  CCOC(=O)C1(COC(=O)C(C)Sc2cc(-n3c(=O)cc(C(F)(F)F)n(C)c3=O)c(F)cc2Cl)CCOCC1 (stereo not drawn) [I.1-293]    90%
